The following compounds each carry a recorded pIC50 for catalytic domain of human Bub1 (amino acids 704-1085) (Homo sapiens, UniProt O43683).
pIC50: −log10 of the molar value.

{"sample smiles": "Cc1nsc(Nc2cnc(C(F)(F)F)cn2)c1C(=O)Nc1ccc(N2CCN(CCC(F)(F)F)CC2)nc1", "measurement label": "pIC50", "meas value": "< 4.70"}

Query string: For the compound shown here, Cc1nsc(Nc2cc(C#N)ccn2)c1C(=O)Nc1ccc(OCCCNCC(F)F)nc1 , give the reported pIC50.
Result string: ≤ 4.70

Query string: For the compound shown here, Cc1nsc(Nc2cnc(C(F)(F)F)cn2)c1C(=O)Nc1ccc(O[C@H]2CCN(CC(F)(F)F)C[C@H]2F)nc1 , give the reported pIC50.
Result string: < 4.70

Query string: For the compound shown here, Cc1nsc(Nc2ccc(C#N)cn2)c1C(=O)Nc1ccc(S(C)(=O)=O)cc1 , give the reported pIC50.
Result string: < 4.70

---

tgt: CDK2/CycE (Homo sapiens)
Construct: GST
test: CDK2/CycE kinase assay (TR-FRET)
assay setup: avg, read-out: CDK2 avg (IC50 [mol/l])
# IC50 listing for each entry below

{"compound": "Cc1nsc(Nc2cnc(C(F)(F)F)cn2)c1C(=O)Nc1ccc(OCCN(C)CC(F)F)nc1", "IC50": "≥ 20 µM"}
{"compound": "Cc1nsc(Nc2ccc(C#N)cn2)c1C(=O)Nc1ccc(OCCC(=O)OC(C)(C)C)nc1", "IC50": "> 20 µM"}
{"compound": "Cc1nsc(Nc2cnc(C(F)(F)F)cn2)c1C(=O)Nc1ccc(OC[C@@H]2CCCN(CC(F)F)C2)nc1", "IC50": "> 20 µM"}
{"compound": "Cc1nsc(Nc2cnc(C(F)(F)F)cn2)c1C(=O)Nc1ccc(OCC2CCN(CCC(F)(F)F)CC2)nc1", "IC50": "≥ 20 µM"}

Query string: For the compound shown here, Cc1nsc(Nc2cnc(C(F)(F)F)cn2)c1C(=O)Nc1ccc(C(=O)NC2CN(CC(F)(F)F)C2)cc1 , give the reported IC50.
Result string: > 20 µM

Query string: For the compound shown here, Cc1nsc(Nc2cnc(C(F)(F)F)cn2)c1C(=O)Nc1ccc(OC[C@@H]2CCN(CCC(F)(F)F)C2)nc1 , give the reported IC50.
Result string: > 20 µM

---

# IC50 listing for each entry below
tgt: catalytic domain of human Bub1 (amino acids 704-1085) (Homo sapiens)
Sequence (O43683 704-1085): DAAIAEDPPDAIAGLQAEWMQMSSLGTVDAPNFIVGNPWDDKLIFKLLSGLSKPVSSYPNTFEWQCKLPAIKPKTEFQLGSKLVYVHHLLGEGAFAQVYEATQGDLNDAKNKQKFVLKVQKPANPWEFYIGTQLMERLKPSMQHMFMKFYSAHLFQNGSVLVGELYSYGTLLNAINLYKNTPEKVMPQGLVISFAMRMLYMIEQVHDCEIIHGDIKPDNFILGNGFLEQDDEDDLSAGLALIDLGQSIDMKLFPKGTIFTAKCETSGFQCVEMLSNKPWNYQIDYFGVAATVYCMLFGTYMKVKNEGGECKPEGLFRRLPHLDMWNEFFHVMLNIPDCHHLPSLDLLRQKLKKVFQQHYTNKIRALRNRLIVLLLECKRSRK

{"compound": "Cc1nsc(Nc2cnc3ccccc3n2)c1C(=O)Nc1cccc(C(=O)N[C@@H](CCC(N)=O)C(=O)O)c1 [Example 103]", "tgt": "catalytic domain of human Bub1 (amino acids 704-1085) (Homo sapiens)", "meas value": "≥ 20 µM"}

Query string: For the compound shown here, Cc1nsc(Nc2cnc(C(F)(F)F)cn2)c1C(=O)Nc1ccc(OC[C@H]2CCN(CCC(F)(F)F)C2)nc1 [Example 134] , give the reported IC50.
Result string: > 20 µM

Query string: For the compound shown here, Cc1nsc(Nc2ccc(C#N)cn2)c1C(=O)Nc1ccc(OC2CCN(CC(F)(F)F)CC2)nc1 [Example 30] , give the reported IC50.
Result string: ≥ 20 µM

Query string: For the compound shown here, Cc1nsc(Nc2cnc(C(F)(F)F)cn2)c1C(=O)Nc1cccc(NC(=O)OC(C)(C)C)c1 [Example 284] , give the reported IC50.
Result string: > 20 µM

Query string: For the compound shown here, CCCN1CCC(COc2ccc(NC(=O)c3c(C)nsc3Nc3cnc(C(F)(F)F)cn3)cn2)C(F)(F)C1 (stereo not shown) [Example 394] , give the reported IC50.
Result string: > 20 µM

Query string: For the compound shown here, Cc1nsc(Nc2cnc(C(F)(F)F)cn2)c1C(=O)Nc1ccc(F)c(OC2CCN(CC(F)F)CC2)c1 [Example 265] , give the reported IC50.
Result string: > 20 µM

Query string: For the compound shown here, Cc1nsc(Nc2cnc(C(F)(F)F)cn2)c1C(=O)Nc1ccc(F)c(OCC2CCN(CCF)C2)c1 (stereo not shown) [Example 317] , give the reported IC50.
Result string: > 20 µM

---

tgt: catalytic domain of human Bub1 (amino acids 704-1085) (Homo sapiens)
# IC50 listing for each entry below

{"compound": "Cc1nsc(Nc2cnc(C(F)(F)F)cn2)c1C(=O)Nc1ccc(OC2CCN(C(CF)CF)CC2)nc1", "tgt": "catalytic domain of human Bub1 (amino acids 704-1085) (Homo sapiens)", "IC50": "19 µM"}
{"compound": "Cc1nsc(Nc2nc3c(C(F)(F)F)cccc3s2)c1C(=O)Nc1ccc(OCCO)nc1", "tgt": "catalytic domain of human Bub1 (amino acids 704-1085) (Homo sapiens)", "IC50": "≥ 20 µM"}
{"compound": "CCN1CC[C@@H](Oc2ccc(NC(=O)c3c(C)nsc3Nc3cnc(C(F)(F)F)cn3)cn2)[C@H](F)C1", "tgt": "catalytic domain of human Bub1 (amino acids 704-1085) (Homo sapiens)", "IC50": "> 20 µM"}
{"compound": "CCCN1CC[C@H](Oc2ccc(NC(=O)c3c(C)nsc3Nc3cnc(C(F)(F)F)cn3)cn2)[C@H](F)C1", "tgt": "catalytic domain of human Bub1 (amino acids 704-1085) (Homo sapiens)", "IC50": "> 20 µM"}
{"compound": "Cc1nsc(Nc2cnc(C(F)(F)F)cn2)c1C(=O)Nc1ccc(OC2CCCN(CC(F)(F)F)C2)nc1 (centres unmarked)", "tgt": "catalytic domain of human Bub1 (amino acids 704-1085) (Homo sapiens)", "IC50": "≥ 20 µM"}

Query string: For the compound shown here, Cc1nsc(Nc2cnc3ccccc3n2)c1C(=O)Nc1ccc(Nc2ccc(F)c(F)c2)nc1 , give the reported IC50.
Result string: > 20 µM

Query string: For the compound shown here, Cc1nsc(Nc2ccc(C#N)cn2)c1C(=O)Nc1ccc(OCCCNC(=O)OC(C)(C)C)nc1 , give the reported IC50.
Result string: ≥ 20 µM

Query string: For the compound shown here, Cc1nsc(Nc2cc(C#N)ccn2)c1C(=O)Nc1ccc(NC2CCCNC2)nc1 (centres unmarked) , give the reported IC50.
Result string: > 20 µM

---

tgt: CDK2/CycE (Homo sapiens)
Construct: GST
test: CDK2/CycE kinase assay (TR-FRET)
assay setup: avg, read-out: CDK2 avg (IC50 [mol/l])
pIC50: −log10 of the molar value.
measurement label: pIC50

Some compounds with recorded pIC50:
{"compound": "Cc1nsc(Nc2cnc3ccccc3n2)c1C(=O)Nc1cccc(C(=O)N2CCN(C)CC2)c1", "meas value": "≤ 4.70"}
{"compound": "Cc1nsc(Nc2cnc(C(F)(F)F)cn2)c1C(=O)Nc1ccc(OCCN2CCC(F)(F)CC2)nc1", "meas value": "< 4.70"}
{"compound": "Cc1nsc(Nc2cnc3ccccc3n2)c1C(=O)Nc1ccc(C(=O)NC2CN(C(=O)OC(C)(C)C)CC(F)(F)C2)cc1 (stereo not shown)", "meas value": "< 4.70"}

Proceeding to the next compound to report its pIC50.
Query string: For the compound shown here, Cc1nsc(Nc2cnc(C(F)(F)F)cn2)c1C(=O)Nc1ccc(O[C@@H]2CCN(CCC(F)(F)F)C2)nc1 , give the reported pIC50.
Result string: < 4.70

---

Test system: NCI-H460
test: Proliferation assay (crystal violet), NCI-H460
Assay type: cell-based
assay setup: Homo sapiens, 96 h; NCI-H460 cells; 4 days incubation; crystal violet staining; read-out: IC50 inhibition of proliferation, NCI-H460
Method: Cultivated tumor cells (cells were ordered from ATCC, except HeLa-MaTu and HeLa-MaTu-ADR, which were ordered from EPO-GmbH, Berlin) were plated at a density of 1000 to 5000 cells/well, depending on the growth rate of the respective cell line, in a 96-well multititer plate in 200 μL of their respective growth medium supplemented 10% fetal calf serum. […] Absorbtion was determined by photometry at a wavelength of 595 nm. […] The IC50 values were determined by means of a 4 parameter fit.
pIC50: −log10 of the molar value.
measurement label: pIC50

1. Cc1nsc(Nc2ccc(C#N)cn2)c1C(=O)Nc1ccc(OC2CCCN(C(=O)OC(C)(C)C)C2)nc1 (centres unmarked)
2. Cc1nsc(Nc2ccc(C#N)cn2)c1C(=O)Nc1ccc(C(=O)OC(C)(C)C)cc1
Query string: Please indicate which item has the smaller measured pIC50: 1 versus 2 State the label of the item chosen.
Result string: 1

a. Cc1nsc(Nc2cnc3ccccc3n2)c1C(=O)Nc1cccc(-c2nc(C(C)(C)C)no2)c1
b. Cc1nsc(Nc2ccc(C#N)cn2)c1C(=O)Nc1ccc(Oc2cccc(C(F)(F)F)c2)nc1
Query string: Please indicate which item has the smaller measured pIC50: a versus b State the label of the item chosen.
Result string: b

---

Tested on: HeLa
test: Proliferation assay (crystal violet), HeLa
Assay type: cell-based
assay setup: Homo sapiens, HeLa, 96 h, HeLa cells; 4 days incubation; crystal violet staining; read-out: IC50 inhibition of proliferation, HeLa
pIC50: −log10 of the molar value.
measurement label: pIC50

{"molecule": "CCCCN1CC[C@@H](Oc2ccc(NC(=O)c3c(C)nsc3Nc3cnc(C(F)(F)F)cn3)cn2)[C@@H](F)C1", "pIC50": 6.47}
{"molecule": "Cc1nsc(Nc2cnc(C(F)(F)F)cn2)c1C(=O)Nc1ccc(OCC2CCN(CC(F)F)C2)nc1 (stereo not drawn)", "pIC50": 6.55}
{"molecule": "Cc1nsc(Nc2cncc(C(F)(F)F)n2)c1C(=O)Nc1ccc(OC2CCN(CCC(F)(F)F)CC2)nc1", "pIC50": 6.44}
{"molecule": "Cc1nsc(Nc2ccc(C#N)cn2)c1C(=O)Nc1ccc(Oc2cccc(C(F)(F)F)c2)nc1", "pIC50": 6.22}
{"molecule": "Cc1nsc(Nc2cnc(C(F)(F)F)cn2)c1C(=O)Nc1ccc(OCCCO)nc1", "pIC50": 5.66}
{"molecule": "Cc1nsc(Nc2cncc(C(F)(F)F)n2)c1C(=O)Nc1ccc(OCC2CCCN(C(=O)OC(C)(C)C)C2)nc1 (stereo not drawn)", "pIC50": 6.08}
{"molecule": "Cc1nsc(Nc2cnc(C(F)(F)F)cn2)c1C(=O)Nc1ccc(N2CCN(CC(F)(F)F)CC2)cn1", "pIC50": 6.09}
{"molecule": "Cc1nsc(Nc2cnc(C(F)(F)F)cn2)c1C(=O)Nc1ccc(F)c(OC[C@H]2CCCN(CCC(F)(F)F)C2)c1", "pIC50": 5.92}

A. Cc1nsc(Nc2cnc(C(F)(F)F)cn2)c1C(=O)Nc1ccc(O[C@@H]2CCN(CC(F)(F)F)C[C@H]2F)nc1
B. Cc1nsc(Nc2cncc(C(F)(F)F)n2)c1C(=O)Nc1ccc(F)c(OC2CCN(CC(F)(F)F)CC2)c1
Query string: Please indicate which item has the smaller measured pIC50: A versus B State the label of the item chosen.
Result string: B
(B: 6.24, A: 6.52)
